- Species on record: Rattus norvegicus
- Test Name: Open TG-GATES - Regimen: Daily Repeat
- Format: toxicity, organism-based, Sprague-Dawley
- Design: regimen Daily Repeat, gender Male, age 6 weeks
- Settings: in vivo, po, 0 mg/kg, […], tissue Blood, route gavage, dose level Control, time 14 day
Labelling field: enter 1 (yes) if recorded Ret is less than 4%. Enter 0 (no) if it equals or exceeds that cut-off.

Request: # check: Ret < 4% for CN1C(C(=O)Nc2ccccn2)=C(O)c2sc(Cl)cc2S1(=O)=O
Result: 1 (yes)

Request: Ret under 4%? Item: Clc1c(Cl)c(Cl)c(Cl)c(Cl)c1Cl
Result: 0 (no)

Request: Input CC(=O)Nc1nnc(S(N)(=O)=O)s1 [ACETAZOLAMIDE] ; condition: Ret strictly below 4%. Does it hold?
Result: 0 (no)

Request: Hello, is Ret of the following molecule strictly smaller than 4%? Cc1cccc(Nc2ccccc2C(=O)O)c1C
Result: 0 (no)

Request: Given the entry CN(C)[C@@H]1C(O)=C(C(N)=O)C(=O)[C@@]2(O)C(O)=C3C(=O)c4c(O)cccc4[C@@](C)(O)[C@H]3C[C@@H]12 , would its reported Ret be below 4%?
Result: 0 (no)

Request: In the record for C#C[C@]1(O)CC[C@H]2[C@@H]3CCC4=Cc5oncc5C[C@]4(C)[C@H]3CC[C@@]21C , is Ret less than 4%?
Result: 1 (yes)

Request: Find out if reported Ret for CC(CN1c2ccccc2Sc2ccccc21)N(C)C (stereo not given) is less than 4%
Result: 0 (no)

Request: Hi there! Is Ret for C1CCC(C(CC2CCCCN2)C2CCCCC2)CC1 (stereo not given) below 4%, do you know?
Result: 1 (yes)

* * *

- Organism: Rattus norvegicus
- Test Name: Open TG-GATES - Regimen: Daily Repeat
- Type: toxicity, organism-based, Sprague-Dawley
- Parameters: regimen Daily Repeat, gender Male, age 6 weeks
- Settings: in vivo, po, 0 mg/kg, […], tissue Blood, route gavage, dose level Control, time 28 day
Metric Name: MCV (fL)
// units = fL; emit number, no label

Request: Please report the measured MCV for CN(C)[C@@H]1C(O)=C(C(N)=O)C(=O)[C@@]2(O)C(O)=C3C(=O)c4c(O)cccc4[C@@](C)(O)[C@H]3C[C@@H]12
Result: 58.3

Request: Assign MCV to the following record: CCOC(=O)[C@H](CCc1ccccc1)N[C@@H](C)C(=O)N1CCC[C@H]1C(=O)O
Result: 58.3

Request: Indicate the recorded MCV value for this compound: Clc1c(Cl)c(Cl)c(Cl)c(Cl)c1Cl
Result: 58.5

Request: State its MCV for this compound: O=C(O)Cc1ccccc1Nc1c(Cl)cccc1Cl
Result: 55.9

Request: Give MCV for C#C[C@]1(O)CC[C@H]2[C@@H]3CCC4=Cc5oncc5C[C@]4(C)[C@H]3CC[C@@]21C
Result: 57.9

Request: Using the record for CC(=O)Nc1nnc(S(N)(=O)=O)s1 [ACETAZOLAMIDE] , state its measured MCV.
Result: 55.6

Request: Provide only the value of recorded MCV for CC(CN1c2ccccc2Sc2ccccc21)N(C)C (stereo not given)
Result: 57.7

Request: Input C1CCC(C(CC2CCCCN2)C2CCCCC2)CC1 (stereo not given) , output reported MCV.
Result: 61.3

Request: Complete the entry with MCV for Cc1cccc(Nc2ccccc2C(=O)O)c1C
Result: 57.4

Request: Quote MCV reported for CN1C(C(=O)Nc2ccccn2)=C(O)c2sc(Cl)cc2S1(=O)=O please.
Result: 57.6

* * *

- Organism: Rattus norvegicus
- Test Name: Open TG-GATES - Regimen: Single
- Type: toxicity, organism-based, Sprague-Dawley
- Design: regimen Single, gender Male, age 6 weeks
- Settings: in vivo, po, 0 mg/kg, 6 h, tissue Blood, route gavage, dose level Control
Field: MCV. Provide a value for each of the compounds that follow.
Give the quantity in fL, number only.

Request: Supply reported MCV belonging to this compound: Cc1cccc(Nc2ccccc2C(=O)O)c1C
Result: 61.9

Request: Recall and state the measured MCV for CCOC(=O)[C@H](CCc1ccccc1)N[C@@H](C)C(=O)N1CCC[C@H]1C(=O)O .
Result: 65.4

Request: Please look at this compound and report its MCV: CN(C)[C@@H]1C(O)=C(C(N)=O)C(=O)[C@@]2(O)C(O)=C3C(=O)c4c(O)cccc4[C@@](C)(O)[C@H]3C[C@@H]12
Result: 65.9

Request: Consider the compound COc1cc([C@@H]2c3cc4c(cc3[C@@H](O[C@@H]3O[C@@H]5CO[C@@H](C)O[C@H]5[C@H](O)[C@H]3O)[C@H]3COC(=O)[C@H]23)OCO4)cc(OC)c1O [ETOPOSIDE] and give its recorded MCV.
Result: 65.3

Request: State its MCV for this compound: C#C[C@]1(O)CC[C@H]2[C@@H]3CCC4=Cc5oncc5C[C@]4(C)[C@H]3CC[C@@]21C
Result: 63

* * *

- Species on record: Rattus norvegicus
- Test Name: Open TG-GATES - Regimen: Daily Repeat
- Format: toxicity, organism-based, Sprague-Dawley
- Set-up: regimen Daily Repeat, gender Male, age 6 weeks
- Settings: in vivo, po, 0 mg/kg, […], tissue Plasma, route gavage, dose level Control, time 7 day
Metric Name: A/G
Answer with a bare number; do not write a unit.

Request: Give A/G for the following compound: CN(C)[C@@H]1C(O)=C(C(N)=O)C(=O)[C@@]2(O)C(O)=C3C(=O)c4c(O)cccc4[C@@](C)(O)[C@H]3C[C@@H]12 [TETRACYCLINE]
Result: 2.1

Request: Read off the recorded A/G for CN1C(C(=O)Nc2ccccn2)=C(O)c2sc(Cl)cc2S1(=O)=O [LORNOXICAM]
Result: 1.7

Request: Give a short answer stating reported A/G for Clc1c(Cl)c(Cl)c(Cl)c(Cl)c1Cl [PERCHLOROBENZENE] .
Result: 2

Request: Kindly indicate its recorded A/G. Item: CC(CN1c2ccccc2Sc2ccccc21)N(C)C (stereo unspecified) [PROMETHAZINE]
Result: 1.3

Request: Identify the reported A/G for the following entry. CCOC(=O)[C@H](CCc1ccccc1)N[C@@H](C)C(=O)N1CCC[C@H]1C(=O)O
Result: 2.1

Request: For Cc1cccc(Nc2ccccc2C(=O)O)c1C [MEFENAMIC ACID] , write its A/G.
Result: 1.5

* * *

Give measured Hb for each item. Keep answers brief.
- Species: Rattus norvegicus
- Test Name: Open TG-GATES - Regimen: Single
- Assay type: toxicity, organism-based, Sprague-Dawley
- Set-up: regimen Single, gender Male, age 6 weeks
- Settings: in vivo, po, 0 mg/kg, 24 h, tissue Blood, route gavage, dose level Control
Provide only the numeric value, understood in g/dL.

Request: Supply recorded Hb for O=[N+]([O-])c1ccc2c(c1)Cc1ccccc1-2 here.
Result: 12.7

Request: Give the reported value of Hb for this record: CCOC(=O)[C@H](CCc1ccccc1)N[C@@H](C)C(=O)N1CCC[C@H]1C(=O)O
Result: 13.2

Request: Write down Hb measured for item CN(C)[C@@H]1C(O)=C(C(N)=O)C(=O)[C@@]2(O)C(O)=C3C(=O)c4c(O)cccc4[C@@](C)(O)[C@H]3C[C@@H]12
Result: 13.2

Request: Note down Hb recorded for C#C[C@]1(O)CC[C@H]2[C@@H]3CCC4=Cc5oncc5C[C@]4(C)[C@H]3CC[C@@]21C
Result: 13.3

Request: For the compound Cc1cccc(Nc2ccccc2C(=O)O)c1C , give its reported Hb.
Result: 13.4

Request: Give Hb for COc1cc([C@@H]2c3cc4c(cc3[C@@H](O[C@@H]3O[C@@H]5CO[C@@H](C)O[C@H]5[C@H](O)[C@H]3O)[C@H]3COC(=O)[C@H]23)OCO4)cc(OC)c1O [ETOPOSIDE]
Result: 13.1

Request: Given Clc1c(Cl)c(Cl)c(Cl)c(Cl)c1Cl , respond with its Hb.
Result: 13.7

Request: Supply reported Hb belonging to this compound: CC(CN1c2ccccc2Sc2ccccc21)N(C)C (stereo not given)
Result: 13.5

Request: Indicate its recorded Hb; the compound in question is CN1C(C(=O)Nc2ccccn2)=C(O)c2sc(Cl)cc2S1(=O)=O
Result: 13.5

Request: Check the records and state Hb for C1CCC(C(CC2CCCCN2)C2CCCCC2)CC1 (stereo not given)
Result: 13.1

* * *

Consider the following molecules; for each one, report its KIDNEY_L.
- Species on record: Rattus norvegicus
- Test Name: Open TG-GATES - Regimen: Single
- Type: toxicity, organism-based, Sprague-Dawley
- Design: regimen Single, gender Male, age 6 weeks
- Settings: in vivo, po, 0 mg/kg, 6 h, tissue Kidney, route gavage, dose level Control
Please state the number and follow it with the unit.

Request: Using known records, supply KIDNEY_L for CCOC(=O)[C@H](CCc1ccccc1)N[C@@H](C)C(=O)N1CCC[C@H]1C(=O)O
Result: 0.9 g

Request: Using the record for CC(CN1c2ccccc2Sc2ccccc21)N(C)C (stereo not given) [PROMETHAZINE] , state its measured KIDNEY_L.
Result: 1 g

Request: Output measured KIDNEY_L for this item: Clc1c(Cl)c(Cl)c(Cl)c(Cl)c1Cl [PERCHLOROBENZENE]
Result: 1 g

Request: Determine its reported KIDNEY_L: CN1C(C(=O)Nc2ccccn2)=C(O)c2sc(Cl)cc2S1(=O)=O [LORNOXICAM]
Result: 0.9 g

Request: For the molecule COc1cc([C@@H]2c3cc4c(cc3[C@@H](O[C@@H]3O[C@@H]5CO[C@@H](C)O[C@H]5[C@H](O)[C@H]3O)[C@H]3COC(=O)[C@H]23)OCO4)cc(OC)c1O [ETOPOSIDE] , report KIDNEY_L.
Result: 0.9 g

Request: Quote KIDNEY_L reported for Cc1cccc(Nc2ccccc2C(=O)O)c1C [MEFENAMIC ACID] please.
Result: 1 g

Request: Report KIDNEY_L, nothing else, for this molecule: C1CCC(C(CC2CCCCN2)C2CCCCC2)CC1 (stereo not given) [PERHEXILINE]
Result: 1 g

Request: Consider the molecule C#C[C@]1(O)CC[C@H]2[C@@H]3CCC4=Cc5oncc5C[C@]4(C)[C@H]3CC[C@@]21C [DANAZOL] and give its recorded KIDNEY_L.
Result: 0.9 g

Request: Fill in reported KIDNEY_L for this entry: CN(C)[C@@H]1C(O)=C(C(N)=O)C(=O)[C@@]2(O)C(O)=C3C(=O)c4c(O)cccc4[C@@](C)(O)[C@H]3C[C@@H]12 [TETRACYCLINE]
Result: 0.8 g

Request: Report KIDNEY_L for CC(=O)Nc1nnc(S(N)(=O)=O)s1 [ACETAZOLAMIDE]
Result: 1 g
